Data provenance is ChEMBL document CHEMBL4184096.

Consider the following molecules; for each one, report its IC50.
tgt: Sodium channel protein type 5 subunit alpha (Homo sapiens, UniProt Q14524)
Sequence (Q14524 whole entry): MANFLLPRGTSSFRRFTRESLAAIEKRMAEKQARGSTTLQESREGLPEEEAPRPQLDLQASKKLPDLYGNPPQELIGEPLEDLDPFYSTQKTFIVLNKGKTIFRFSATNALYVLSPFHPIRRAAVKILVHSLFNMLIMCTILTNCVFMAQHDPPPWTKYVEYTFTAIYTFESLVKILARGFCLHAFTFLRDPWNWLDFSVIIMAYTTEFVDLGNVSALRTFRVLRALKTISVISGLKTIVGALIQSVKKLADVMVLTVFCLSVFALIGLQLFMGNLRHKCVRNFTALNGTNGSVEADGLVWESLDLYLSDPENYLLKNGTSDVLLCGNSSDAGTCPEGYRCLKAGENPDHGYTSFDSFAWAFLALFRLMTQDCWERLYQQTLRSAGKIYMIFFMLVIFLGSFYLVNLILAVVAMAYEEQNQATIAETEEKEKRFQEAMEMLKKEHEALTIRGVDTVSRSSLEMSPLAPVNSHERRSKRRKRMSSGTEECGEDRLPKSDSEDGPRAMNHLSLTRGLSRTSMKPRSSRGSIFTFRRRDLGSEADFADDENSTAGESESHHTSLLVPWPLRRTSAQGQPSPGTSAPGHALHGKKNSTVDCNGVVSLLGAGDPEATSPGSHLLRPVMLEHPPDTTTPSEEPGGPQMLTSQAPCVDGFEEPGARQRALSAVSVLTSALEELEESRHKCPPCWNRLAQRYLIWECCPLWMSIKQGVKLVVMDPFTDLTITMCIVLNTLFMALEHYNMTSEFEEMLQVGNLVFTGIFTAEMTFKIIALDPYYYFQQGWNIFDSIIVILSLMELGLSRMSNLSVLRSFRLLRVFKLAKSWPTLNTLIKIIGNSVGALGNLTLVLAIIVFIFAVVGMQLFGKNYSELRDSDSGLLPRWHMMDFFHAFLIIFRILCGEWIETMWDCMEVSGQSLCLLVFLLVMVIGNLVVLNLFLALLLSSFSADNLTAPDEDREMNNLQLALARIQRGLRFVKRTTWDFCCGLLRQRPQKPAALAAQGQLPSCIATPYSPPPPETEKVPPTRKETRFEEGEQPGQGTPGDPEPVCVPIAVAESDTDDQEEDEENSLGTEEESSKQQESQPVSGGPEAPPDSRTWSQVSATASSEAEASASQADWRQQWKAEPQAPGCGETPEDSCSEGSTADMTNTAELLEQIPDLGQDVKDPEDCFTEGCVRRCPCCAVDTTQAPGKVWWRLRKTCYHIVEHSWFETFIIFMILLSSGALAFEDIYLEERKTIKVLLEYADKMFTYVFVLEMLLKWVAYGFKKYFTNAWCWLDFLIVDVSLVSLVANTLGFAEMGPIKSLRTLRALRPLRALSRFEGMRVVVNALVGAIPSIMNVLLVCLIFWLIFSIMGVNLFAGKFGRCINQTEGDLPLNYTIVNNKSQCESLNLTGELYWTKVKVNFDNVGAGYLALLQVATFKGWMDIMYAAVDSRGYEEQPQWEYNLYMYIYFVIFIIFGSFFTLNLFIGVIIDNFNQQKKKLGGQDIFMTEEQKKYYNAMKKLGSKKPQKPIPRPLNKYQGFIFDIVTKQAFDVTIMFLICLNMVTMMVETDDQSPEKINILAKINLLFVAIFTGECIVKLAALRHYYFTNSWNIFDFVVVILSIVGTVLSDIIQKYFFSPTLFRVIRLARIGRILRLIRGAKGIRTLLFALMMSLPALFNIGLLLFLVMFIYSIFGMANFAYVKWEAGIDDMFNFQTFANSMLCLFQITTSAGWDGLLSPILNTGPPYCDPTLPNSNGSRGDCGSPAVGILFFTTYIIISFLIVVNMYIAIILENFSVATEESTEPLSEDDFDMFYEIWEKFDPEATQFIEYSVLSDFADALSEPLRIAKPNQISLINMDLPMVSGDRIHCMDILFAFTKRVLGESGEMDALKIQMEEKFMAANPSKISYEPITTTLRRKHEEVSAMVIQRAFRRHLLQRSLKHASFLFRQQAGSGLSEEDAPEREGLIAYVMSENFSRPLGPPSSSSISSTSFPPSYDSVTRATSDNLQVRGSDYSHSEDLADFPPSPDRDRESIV
protocol-notes: Inhibition of human Nav1.5 channel expressed in HEK293 cells at holding potential of -70 mV by whole cell patch clamp assay
One number for each entry, in nM.

>>> print(df.to_string())
                                   molecule  measurement_label  measured_number
0  CN(C)C(=O)C(CCN1CCC(O)(c2ccc(Cl)cc2)CC1)(c1ccccc1)c1ccccc1 [LOPERAMIDE]               IC50              239

Now for a further molecule.
stdin: Given the molecule `CNC(=O)C(CCN1CCC(O)(c2ccc(Cl)cc2)CC1)(c1ccccc1)c1ccccc1` , what is its reported IC50?
stdout: 483
